- tgt: rat mGluR5 (Rattus norvegicus, UniProt P31424)
- Construct: expressed in transfected cells; host or cells: human embryonic kidney (HEK) cells
- Sequence (P31424 21-1203): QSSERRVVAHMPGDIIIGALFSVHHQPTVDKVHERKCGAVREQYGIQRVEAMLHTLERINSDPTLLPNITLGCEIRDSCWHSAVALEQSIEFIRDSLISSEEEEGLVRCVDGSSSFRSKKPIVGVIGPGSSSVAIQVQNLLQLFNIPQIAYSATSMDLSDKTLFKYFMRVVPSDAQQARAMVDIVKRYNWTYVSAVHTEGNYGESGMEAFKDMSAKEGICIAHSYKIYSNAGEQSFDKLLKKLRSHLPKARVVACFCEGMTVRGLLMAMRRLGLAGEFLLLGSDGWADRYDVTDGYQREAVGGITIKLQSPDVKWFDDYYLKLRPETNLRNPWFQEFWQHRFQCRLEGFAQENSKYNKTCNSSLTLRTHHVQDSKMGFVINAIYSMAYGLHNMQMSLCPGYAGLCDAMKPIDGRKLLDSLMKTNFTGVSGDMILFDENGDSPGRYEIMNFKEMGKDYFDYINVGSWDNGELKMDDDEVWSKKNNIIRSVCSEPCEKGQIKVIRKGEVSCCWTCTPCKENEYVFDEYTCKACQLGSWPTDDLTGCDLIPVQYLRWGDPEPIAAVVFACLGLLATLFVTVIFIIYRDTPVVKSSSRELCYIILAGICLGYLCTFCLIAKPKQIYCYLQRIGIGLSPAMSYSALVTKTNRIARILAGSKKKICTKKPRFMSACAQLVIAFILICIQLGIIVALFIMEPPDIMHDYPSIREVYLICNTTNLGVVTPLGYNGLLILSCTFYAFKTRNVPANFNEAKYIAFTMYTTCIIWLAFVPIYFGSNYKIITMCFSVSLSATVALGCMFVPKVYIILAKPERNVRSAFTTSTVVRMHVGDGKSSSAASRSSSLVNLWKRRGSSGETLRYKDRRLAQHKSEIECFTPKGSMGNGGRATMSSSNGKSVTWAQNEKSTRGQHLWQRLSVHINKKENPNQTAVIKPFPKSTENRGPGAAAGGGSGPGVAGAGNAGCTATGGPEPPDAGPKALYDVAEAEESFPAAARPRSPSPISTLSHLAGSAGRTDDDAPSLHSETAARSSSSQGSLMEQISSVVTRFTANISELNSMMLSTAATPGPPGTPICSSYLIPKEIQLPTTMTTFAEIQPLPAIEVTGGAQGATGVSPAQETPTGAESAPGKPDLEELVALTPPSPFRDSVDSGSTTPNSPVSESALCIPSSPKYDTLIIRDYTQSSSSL
- assay_explanation: Potentiation of glutamate response, Ca2+ fluorescence (FDSS) in HEK cells transfected with rat mGluR5
- Type: cell-based
- settings: Table 2; potentiation of mGluR5 response to glutamate; read-out: EC50
pEC50: −log10 of the molar value.
pEC50 listing for selected compounds.
measurement_kind: pEC50

> print(dat)
                                    compound  lt.gt.eq  obs.value
 1  O=C(N[C@@H](C1CC1)C(F)(F)F)c1ccc(OCc2cccc(F)c2)nc1         =       7.00
 2  CC(C)(C)CCNC(=O)c1cnc(OCc2ccncc2)c(C#N)c1         <       5.00
 3      COc1ccccc1NC(=O)c1ccc(OCc2ccccc2)nc1         =       5.47
 4  C[C@H](NC(=O)c1ccc(OCc2cccc(F)c2)nc1)C(C)(C)O         =       6.21
 5  COc1ccc(COc2ccc(C(=O)N[C@H](C)C(C)(C)C)cn2)cc1F         =       5.34
 6       O=C(Nc1ccccc1O)c1ccc(OCc2ccccc2)nc1         =       6.28
 7  C[C@@H](NC(=O)c1ccc(OCc2cccc(F)c2)nc1)C1CCOCC1         =       6.51
 8  COc1cc(C(=O)NCCC(C)(C)C)cnc1OCc1cccc(F)c1         =       5.72
 9  C[C@H](NC(=O)c1ccc(OCc2cccc(F)c2)nc1Cl)C(C)(C)C         <       5.00
10  CC(C)(C)CCNC(=O)c1ccc(OCc2cc(F)cc(Br)c2)nc1         <       5.00
11  CC(C)[C@@H](C)NC(=O)c1ccc(OCc2cccc(F)c2)nc1         =       7.68
12  COc1nc(OCc2cccc(F)c2)ccc1C(=O)NCCC(C)(C)C         <       5.00
13         O=C(NCC1CCC1)c1ccc(OCc2ccccc2)nc1         =       6.89
14  COCC(C)NC(=O)c1ccc(OCc2cccc(F)c2)nc1 (stereo not shown)         =       5.52
15  COc1cc(F)cc(COc2ccc(C(=O)N[C@H](C)C(C)(C)C)cn2)c1         =       5.29
16  CC(C)(C)CC(C)(C)NC(=O)c1ccc(OCc2cccc(F)c2)nc1         =       5.96
17  C[C@H](CN1CCC(C(F)(F)F)CC1)NC(=O)c1ccc(OCc2cccc(F)c2)nc1         <       5.00
18  C[C@@H](NC(=O)c1ccc(OCc2cccc(F)c2)nc1)C(C)(C)C         =       8.66
19  C[C@@H](NC(=O)c1cnc(OCc2cccc(F)c2)c(C(F)(F)F)c1)C1CCCCC1         <       5.00
20  C[C@@H](NC(=O)c1cnc(OCc2cccc(F)c2)cc1C(F)(F)F)C(C)(C)C         =       5.92
21  CC(NC(=O)c1ccc(OCc2cccc(F)c2)nc1)C1CCCCO1 (stereo not shown)         <       5.00
22  C[C@@H](NC(=O)c1ccc(OCc2cccc(F)c2)nc1Cl)C(C)(C)C         =       6.43
23  C[C@@H](NC(=O)c1ccc(OCc2cccc(F)c2)nc1)C1CCC1         =       8.18
24  Cc1cc(C(=O)NCCC(C)(C)C)cnc1OCc1cccc(F)c1         =       5.89
25  C[C@]1(O)CCC[C@@H]1NC(=O)c1ccc(OCc2cccc(F)c2)nc1         <       5.00
26  C[C@@H](NC(=O)c1ccc(OCc2cccc(F)c2)nc1)C1CCOC(C)(C)C1 (stereo partly shown)         =       5.77
27  O=C(NC1C2CC3CC(C2)CC1C3)c1ccc(OCc2ccccc2)nc1 (stereo not shown)         =       7.41
28  C[C@@H](NC(=O)c1cnc(OCc2ccncc2)c(C#N)c1)C1CCCCC1         =       5.72
29  C[C@@H](NC(=O)c1cnc(OCc2ccncc2)c(Br)c1)C1CCCCC1         =       5.44
30  O=C(NC(c1ccccn1)C(F)(F)F)c1ccc(OCc2cccc(F)c2)nc1 (stereo not shown)         <       5.00
31  COc1ccc(F)cc1COc1ccc(C(=O)N[C@H](C)C(C)(C)C)cn1         =       5.46
32  C[C@@H](NC(=O)c1ccc(OCc2ccncc2)nc1)C(C)(C)C         =       6.24
33  Cc1cc(OCc2cccc(F)c2)ncc1C(=O)N[C@H](C)C(C)(C)C         =       6.16
34  CC(C)(C)CCNC(=O)c1cnc(OCc2cccc(F)c2)c(C#N)c1         =       5.41
35  CC(NC(=O)c1ccc(OCc2cccc(F)c2)nc1)C1CCCOC1 (stereo not shown)         =       5.43
36  CC1(O)CC(NC(=O)c2ccc(OCc3cccc(F)c3)nc2)C1 (stereo not shown)         <       5.00
37  CC(Oc1ccc(C(=O)N[C@H](C)C(C)(C)C)cn1)c1cccc(F)c1 (stereo partly shown)         <       5.00
38   Cc1cc(C(=O)Nc2ccc(F)cc2F)cnc1OCc1ccncc1         =       6.17
39  C[C@H](CN1CCC(F)(F)C1)NC(=O)c1ccc(OCc2cccc(F)c2)nc1         <       5.00
40  Cc1cc(OCc2ccncc2)ncc1C(=O)N[C@H](C)C1CCCCC1         =       6.21
41  C[C@@H](NC(=O)c1cnc(OCc2ccncc2)cc1C(F)(F)F)C(C)(C)C         =       5.41
42  CC[C@@H](C)NC(=O)c1ccc(OCc2cccc(F)c2)nc1         =       5.89
43  CC(NC(=O)c1ccc(OCc2cccc(F)c2)nc1)C(C)(C)CO (stereo not shown)         =       6.00

----------
- tgt: rat mGluR5 (Rattus norvegicus, UniProt P31424)
- Construct: expressed in transfected cells; host or cells: human embryonic kidney (HEK) cells
- assay_explanation: Potentiation of glutamate response, Ca2+ fluorescence (FDSS) in HEK cells transfected with rat mGluR5
- Type: cell-based
- settings: Table 1; potentiation of mGluR5 response to glutamate; read-out: EC50
pEC50: −log10 of the molar value.
Returns Yes if the recorded pEC50 is greater than or equal to 6, and No otherwise.

> print(dat)
                            substance.smiles  category.label
 1            CCCCOc1ccc(C(=O)NC2CCCCCC2)cn1              No
 2  C[C@@H](NC(=O)c1ccc(OCc2cccc(F)c2)nc1)C1CCCCC1             Yes
 3     Cc1cccc(COc2ccc(C(=O)Nc3ccccn3)cn2)c1             Yes
 4  O=C(Nc1ccc(Cl)cc1F)c1ccc(OCc2cccc(F)c2)nc1             Yes
 5          O=C(NCC1CC1)c1ccc(OCc2ccccc2)nc1             Yes
 6       Cc1cccc(COc2ccc(C(=O)NC3CCC3)cn2)c1             Yes
 7      CC(C)(C)CCNC(=O)c1ccc(OCc2cccnc2)nc1              No
 8     CC(C)(C)NC(=O)c1ccc(OCc2cccc(F)c2)nc1             Yes
 9         O=C(NC1CCC1)c1ccc(OCc2ccccc2F)nc1             Yes
10   N#Cc1cccc(COc2ccc(C(=O)NC3CCCCC3)cn2)c1             Yes
11  O=C(Nc1ccc(F)cn1)c1ccc(OCc2ccc(F)cc2)nc1             Yes
12         Cc1nc(OCc2ccccc2)ccc1C(=O)NCC1CC1              No
13     O=C(Nc1cccc(F)c1)c1ccc(OCc2ccccc2)nc1             Yes
14        O=C(NC1CCCCC1)c1ccc(OCc2ccccc2)nc1             Yes

Where these numbers come from: patent US20110183980A1
